For each of the compounds below, state its double positive events.
assay: murine CD8 T cell vesicle adhesion modulation – mouse 2C CD8+ T cells, flow cytometry, primary screen (AID 2052); settings: 2C CD8+ T cell-vesicle binding, at 7 µM, stronger effect = lower value; measured here: CD8+ vesicle-bound cell fraction;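 note: binding gate set so that unloaded-vesicle control wells show 10% double positive cells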
About 220 (0.067%) of roughly 330,000 compounds were called active. The list comes from a sample in which actives are over-represented; it also holds close analogues and randomly drawn compounds.
Numbers only, in %.

# annotated cases, reported double positive events shown
Would you kindly share the measured double positive events for C/C(=N\N(C)C)c1ccc(OCCOc2ccc([N+](=O)[O-])cc2)cc1 ?
36.6

Would you kindly share the measured double positive events for CCCc1c(C(=O)Nc2ccc(F)cc2)cnn1-c1ccccc1 ?
19.3

Go through the list and state double positive events for each entry.
1. Cc1nc2ccc(C(=O)N(C)CC3CCCN(CCc4ccc(Cl)cc4)C3)cc2[nH]1 (stereo not given)
2. Cc1c(Br)c([N+](=O)[O-])nn1CC(=O)N1CCN(Cc2ccccc2)CC1
3. CC(Oc1ccccc1)C(=O)Nc1c2c(nn1-c1ccccc1)CS(=O)C2 (stereo not given)
4. Cc1ccc(C)c2[nH]c(=O)c(CCNC(=O)CC(C)C)cc12

20.7
63
7.9
38.5
